For each record, write down the corresponding growth.
System: HCT-116 colon
Assay: NCI-60 one-dose screen, 48 h (100 = growth as untreated, 0 = no growth, -100 = all killed)
Conditions: 10 µM unless noted
About 83,000 compounds went through this panel and 20% of them were active in at least one assay; those are over-represented in the sample as a whole.
API: value field is a number in %; no unit string.

Ask | What does the record list as growth for `Cc1cccc2ccccc12` ?
Reply | 95.8

Ask | Next up: CC(=O)OC(C)c1cccc(C#N)c1 (centres undefined)
Reply | 100

Ask | Next up: `CCCCCC/C=C\CCCCCCCCCc1cc(O)cc(OC)c1O`
Reply | 5.45

Ask | Next up: `S=C(NCc1ccccc1)N1CCC(CCCC2CCN(C(=S)NCc3ccccc3)CC2)CC1`
Reply | 85.5

Ask | Next up: `CCCCN(C=S)CCCC`
Reply | 98.9

Ask | Next up: CCCC(OC(C)=O)c1ccc2c(c1)OCO2 (centres undefined)
Reply | 108

Ask | Next up: N#CCCN1C(=O)CCC1C(=O)O (centres undefined)
Reply | 97.6

Ask | Next up: `Cc1ccc(Cc2ccc(C)cc2)cc1`
Reply | 107

Ask | Next up: `CN(C)c1ccc2nc3ccc(=[N+](C)C)cc-3oc2c1`
Reply | 6.48

Ask | Next up: Nc1ccn(C2CC(N)C(CO)O2)c(=O)n1 (centres undefined)
Reply | 63.6

Ask | Next up: CC(=O)OCC1OC(n2cnc3c(=S)nc(N)[nH]c32)C(OC(C)=O)C1OC(C)=O (centres undefined)
Reply | 43.3

Ask | Next up: C=C1C(=O)C2CCC1C2 (centres undefined)
Reply | 105

Ask | Next up: `CCCCn1cnc2c(=O)[nH]cnc21`
Reply | 107

Ask | Next up: COc1ccc(C2CC(c3ccccc3)=Nc3ccccc3S2)cc1 (centres undefined)
Reply | 88.7

---

System: K-562 leukemia
Test: NCI-60 one-dose screen, 48 h
Conditions: 10 µM unless noted
Compounds without any hit were thinned out: in the full panel of roughly 83,000, 20% have a hit. Calls of active or inactive are those of the source. Rule for the calls: active = growth percent below 10; inactive = the rest.
Your answer must be one of the following: active, inactive

Ask | Assay result, entry `CCCCc1ccc2nc(NC(=O)OC)[nH]c2c1` — outcome?
Reply | active

Ask | Next up: `Cc1cc2nc(C)c(C)nc2cc1C`
Reply | inactive

Ask | Next up: `Ic1cccs1`
Reply | inactive

Ask | Next up: `CC(C)C(=O)OCCOc1ccc(C(C)(C)C)cc1`
Reply | inactive

Ask | Next up: Nc1ncnc2c1ncn2C1OC(CO)C2OC21 (stereo not given)
Reply | inactive

Ask | Next up: C/C=C/C1OCC(CC)C(CCC)O1 (stereo not given)
Reply | inactive

Ask | Next up: `C=C(C)[C@@H]1CC[C@]2(CO)CC[C@]3(C)[C@H](CC[C@@H]4[C@@]5(C)CC[C@H](O)C(C)(C)[C@@H]5CC[C@]43C)[C@@H]12`
Reply | inactive

Ask | Next up: `O=C(O)c1ccccc1Cc1ccc2c(c1)CCCC2`
Reply | inactive

Ask | Next up: `CC(CCC#N)(CCC#N)C(=O)c1ccccc1`
Reply | inactive

Ask | Next up: `CCCOCc1cn[nH]n1`
Reply | inactive

Ask | Next up: `Cc1cc(Cc2ccccc2)c(O)c(Cc2ccccc2)c1`
Reply | inactive

Ask | Next up: `Nc1cc2ccccc2c(O)c1O`
Reply | active

Ask | Next up: `CC(C)(CC(=O)O)CC(=O)O`
Reply | inactive

Ask | Next up: `O=C(c1ccccc1)c1ccc(-c2ccc(O)cc2)cc1`
Reply | inactive

Ask | Next up: `CCCCNc1ccc(-c2ccc(NCCCC)cc2)cc1`
Reply | inactive
